# TGT: human Peroxisome Proliferator-activated Receptor alpha (PPARa), PPARA (gene 5465) (UniProt Q07869)
# Sequence (Q07869 whole entry, looked up): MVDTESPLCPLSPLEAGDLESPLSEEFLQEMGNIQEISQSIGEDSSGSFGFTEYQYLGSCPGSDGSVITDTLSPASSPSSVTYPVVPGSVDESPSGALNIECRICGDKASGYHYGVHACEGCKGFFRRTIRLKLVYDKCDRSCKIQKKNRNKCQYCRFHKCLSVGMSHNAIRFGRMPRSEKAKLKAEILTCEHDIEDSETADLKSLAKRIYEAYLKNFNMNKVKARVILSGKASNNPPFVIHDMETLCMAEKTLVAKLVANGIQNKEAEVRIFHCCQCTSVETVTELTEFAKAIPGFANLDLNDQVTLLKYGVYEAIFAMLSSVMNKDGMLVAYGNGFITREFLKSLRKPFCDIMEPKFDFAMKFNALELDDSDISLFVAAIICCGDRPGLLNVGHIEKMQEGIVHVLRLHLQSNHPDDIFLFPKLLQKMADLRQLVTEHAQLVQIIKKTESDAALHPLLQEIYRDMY
# PROCEDURE TEXT: ATG_PPARa_TRANS: Attagene TRANS-FACTORIAL HepG2 Assay for human Peroxisome Proliferator-activated Receptor alpha (PPARa) (AID 2283001)
Results filed as inconclusive are left out. Calls of active or inactive are those of the source. The calls were made as follows: active = hit-call score of the fitted dose curve at least 0.9, where 1 is the maximum; inconclusive = response in the unintended direction; inactive = score below 0.9.
Outcomes: True for active, False for inactive

# COMPOUND, CLASS NAME
rows = [
    ("COc1nn(CSP(=S)(OC)OC)c(=O)s1", "False"),
    ("CN1CSC(=S)N(C)C1", "False"),
    ("N#Cc1c(Cl)c(Cl)c(Cl)c(C#N)c1Cl", "False"),
    ("N#CN", "False"),
    ("CCS(=O)(=O)c1cccnc1S(=O)(=O)NC(=O)Nc1nc(OC)cc(OC)n1", "False"),
    ("COC(=O)c1ccccc1S(=O)(=O)NC(=O)Nc1nc(C)nc(OC)n1", "False"),
    ("CC1(c2ccc(Oc3ccccc3)cc2)OC(=O)N(Nc2ccccc2)C1=O (centres undefined)", "False"),
    ("CCCN(CCOc1c(Cl)cc(Cl)cc1Cl)C(=O)n1ccnc1", "False"),
    ("COc1cc(OC)nc(NC(=O)NS(=O)(=O)c2cc(NC=O)ccc2C(=O)N(C)C)n1", "False"),
    ("O=C(O)C(F)(F)C(F)(F)C(F)(F)C(F)(F)C(F)(F)C(F)(F)C(F)(F)F", "True"),
    ("CCN(CC)C(=O)SCc1ccc(Cl)cc1", "False"),
    ("O=S1OCC2C(CO1)C1(Cl)C(Cl)=C(Cl)C2(Cl)C1(Cl)Cl (centres undefined)", "False"),
    ("O=C(O)CCCOc1ccc(Cl)cc1Cl", "False"),
    ("CNC(=O)CSP(=S)(OC)OC", "False"),
]

---

# Read-out: ATP-citrate lyase (ACLY), ACLY (gene 47)
# PROCEDURE TEXT: LTEA_HepaRG_ACLY: Life Technologies and Expression Analysis (LTEA) Assay for ATP-citrate lyase (ACLY) using HepaRG (AID 2283466)
# APPLIED CONDITIONS: mRNA level, 48 h; actives raise or lower the signal
Activity calls are given as the source filed them. How the source made its calls: active means hit-call score of the fitted dose curve at least 0.9, where 1 is the maximum; inactive means score below 0.9.
Possible outcomes: Y = active, N = inactive

# COMPOUND, CLASS NAME
data = [
    ("N#CN", "N"),
    ("CCCN(CCOc1c(Cl)cc(Cl)cc1Cl)C(=O)n1ccnc1", "Y"),
    ("ClC1C(Cl)C(Cl)C(Cl)C(Cl)C1Cl (configuration not stated)", "N"),
    ("O=C(O)COc1ccc(Cl)cc1Cl", "N"),
    ("O=S1OCC2C(CO1)C1(Cl)C(Cl)=C(Cl)C2(Cl)C1(Cl)Cl (configuration not stated)", "Y"),
    ("Cc1[nH]c(=O)n(C(C)(C)C)c(=O)c1Cl", "N"),
    ("COP(=S)(OC)Oc1ccc([N+](=O)[O-])cc1", "N"),
    ("CC(C)(C)C(O)/C(=C\\c1ccc(Cl)cc1Cl)n1cncn1 (configuration not stated)", "Y"),
    ("O=C(O)C(F)(F)C(F)(F)C(F)(F)C(F)(F)C(F)(F)C(F)(F)C(F)(F)F", "N"),
    ("O=C1c2ccccc2C(=O)N1SC(Cl)(Cl)Cl", "N"),
    ("CC(C)N(C(=O)COc1nnc(C(F)(F)F)s1)c1ccc(F)cc1", "N"),
    ("Clc1ccccc1-c1nnc(-c2ccccc2Cl)nn1", "N"),
    ("CCOC1Oc2ccc(OS(C)(=O)=O)cc2C1(C)C (configuration not stated)", "Y"),
    ("CC[C@H](C)[C@H]1O[C@]2(C=C[C@@H]1C)C[C@@H]1C[C@@H](C/C=C(\\C)[C@@H](O[C@H]3C[C@H](OC)[C@@H](O[C@H]4C[C@H](OC)[C@@H](O)[C@H](C)O4)[C@H](C)O3)[C@@H](C)/C=C/C=C3\\CO[C@@H]4[C@H](O)C(C)=C[C@@H](C(=O)O1)[C@]34O)O2 (tested in a mixture with another compound)", "Y"),
    ("CNC(=O)/C=C(\\C)OP(=O)(OC)OC", "N"),
    ("CNC(=O)Oc1cccc(N=CN(C)C)c1", "N"),
    ("O=[N+]([O-])/N=C1\\NCCN1Cc1ccc(Cl)nc1", "N"),
    ("CCC(C)(NC(=O)c1cc(Cl)c(C)c(Cl)c1)C(=O)CCl (configuration not stated)", "N"),
    ("C[C@H]1[C@H](c2ccc(Cl)cc2)SC(=O)N1C(=O)NC1CCCCC1", "Y"),
    ("COP(=S)(OC)Oc1ccc(SC)c(C)c1", "N"),
    ("CC(C)OC(=O)Nc1cccc(Cl)c1", "N"),
    ("CN1CSC(=S)N(C)C1", "N"),
]
